# credit: patent US20230235012A1

target.or.system: T1, human ICOS, full-length, expressed on transfected Expi293 cells (human, UniProt Q9Y6W8 21-199)
T1 construct: whole, on cells
T1 sequence (looked up): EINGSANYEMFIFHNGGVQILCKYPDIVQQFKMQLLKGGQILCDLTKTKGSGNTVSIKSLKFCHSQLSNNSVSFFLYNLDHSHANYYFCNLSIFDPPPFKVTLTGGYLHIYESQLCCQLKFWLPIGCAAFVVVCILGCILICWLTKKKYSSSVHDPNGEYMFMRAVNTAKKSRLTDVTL
test.summary: flow cytometry, 100 nM, Expi293 cells with human ICOS
Below, each of the binders is paired with its reported MFI value.

binder: variant ICOSL IgV-Fc fusion N52L/N57V (Fc fusion) DTQEKEVRAMVGSDVELSCACPEGSRFDLNDVYVYWQTSESKTVVTYHIPQLSSLEVVDSRYRNRALMSPAGMLRGDFSLRLFNVTPQDEQKFHCLVLSQSLGFQEVLSVEVTLHVAANFSVGSGGGGSEPKSSDKTHTCPPCPAPEAEGAPSVFLFPPKPKDTLMISRTPEVTCVVVDVSHEDPEVKFNWYVDGVEVHNAKTKPREEQYNSTYRVVSVLTVLHQDWLNGKEYKCKVSNKALPAPIEKTISKAKGQPREPQVYTLPPSREEMTKNQVSLTCLVKGFYPSDIAVEWESNGQPENNYKTTPPVLDSDGSFFLYSKLTVDKSRWQQGNVFSCSVMHEALHNHYTQKSLSLSPG
unit.abbrev: MFI
MFI: 257000
//
binder: variant ICOSL IgV-Fc fusion N52P/N57S/Q100G (Fc fusion) DTQEKEVRAMVGSDVELSCACPEGSRFDLNDVYVYWQTSESKTVVTYHIPQPSSLESVDSRYRNRALMSPAGMLRGDFSLRLFNVTPQDEQKFHCLVLSGSLGFQEVLSVEVTLHVAANFSVGSGGGGSEPKSSDKTHTCPPCPAPEAEGAPSVFLFPPKPKDTLMISRTPEVTCVVVDVSHEDPEVKFNWYVDGVEVHNAKTKPREEQYNSTYRVVSVLTVLHQDWLNGKEYKCKVSNKALPAPIEKTISKAKGQPREPQVYTLPPSREEMTKNQVSLTCLVKGFYPSDIAVEWESNGQPENNYKTTPPVLDSDGSFFLYSKLTVDKSRWQQGNVFSCSVMHEALHNHYTQKSLSLSPG
unit.abbrev: MFI
MFI: 143000
//
binder: variant ICOSL IgV-Fc fusion N52T/N57H/Q100A (Fc fusion) DTQEKEVRAMVGSDVELSCACPEGSRFDLNDVYVYWQTSESKTVVTYHIPQTSSLEHVDSRYRNRALMSPAGMLRGDFSLRLFNVTPQDEQKFHCLVLSASLGFQEVLSVEVTLHVAANFSVGSGGGGSEPKSSDKTHTCPPCPAPEAEGAPSVFLFPPKPKDTLMISRTPEVTCVVVDVSHEDPEVKFNWYVDGVEVHNAKTKPREEQYNSTYRVVSVLTVLHQDWLNGKEYKCKVSNKALPAPIEKTISKAKGQPREPQVYTLPPSREEMTKNQVSLTCLVKGFYPSDIAVEWESNGQPENNYKTTPPVLDSDGSFFLYSKLTVDKSRWQQGNVFSCSVMHEALHNHYTQKSLSLSPG
unit.abbrev: MFI
MFI: 220000
//
binder: variant ICOSL IgV-Fc fusion N52G/N57V/Q100G (Fc fusion) DTQEKEVRAMVGSDVELSCACPEGSRFDLNDVYVYWQTSESKTVVTYHIPQGSSLEVVDSRYRNRALMSPAGMLRGDFSLRLFNVTPQDEQKFHCLVLSGSLGFQEVLSVEVTLHVAANFSVGSGGGGSEPKSSDKTHTCPPCPAPEAEGAPSVFLFPPKPKDTLMISRTPEVTCVVVDVSHEDPEVKFNWYVDGVEVHNAKTKPREEQYNSTYRVVSVLTVLHQDWLNGKEYKCKVSNKALPAPIEKTISKAKGQPREPQVYTLPPSREEMTKNQVSLTCLVKGFYPSDIAVEWESNGQPENNYKTTPPVLDSDGSFFLYSKLTVDKSRWQQGNVFSCSVMHEALHNHYTQKSLSLSPG
unit.abbrev: MFI
MFI: 260000
